// data source = paper PMC11123692

# experiment-summary: Equilibrium surface tension, Wilhelmy plate method (CMC, γcmc, Amin and derived quantities)
# Format: physicochemical
# condition-description: T = 25 °C; from Gibbs adsorption equation
Note to self: values exactly at 40 Å^2/molecule are yes. So Amin at or above 40 Å^2/molecule is yes, below is no.

Is the recorded value of Amin equal to or greater than 40 Å^2/molecule for this compound? CCCCCCCCCCOC(=O)[C@H]1O[C@H](OC)[C@H](O)[C@@H](O)[C@@H]1O [MeαGlc(C=O)OC10] yes

Do the same for CCCCCCCC(=O)OC[C@H]1O[C@@H](OC)[C@H](O)[C@@H](O)[C@H]1O [MeβGalO(C=O)C7] please yes

Do the same for CCCCCCCCCCCCOC(=O)[C@H]1O[C@H](OC)[C@H](O)[C@@H](O)[C@@H]1O [MeαGlc(C=O)OC12] please yes

Do the same for CCCCCCCCO[C@@H]1O[C@H](CO)[C@@H](O)[C@H](O)[C@H]1O [Molecule C8βGlc, octyl β-D-glucopyranoside, reference compound] please no

Do the same for CCCCCCCCO[C@H]1O[C@H](CO)[C@H](O)[C@H](O)[C@H]1O [Molecule C8αGal, Octyl α-D-galactopyranoside, reference compound] please yes

----------
# experiment-summary: Krafft temperature (Tk) by visual examination and DSC of molecule/water systems
# Assay type: physicochemical
# condition-description: in water; observation and DSC; average ± SD of at least two measurements
readout-label: Tk (Krafft temperature)

Value lookup for Tk (Krafft temperature); key = CCCCCCCCO[C@H]1O[C@H](CO)[C@H](O)[C@H](O)[C@H]1O [Molecule C8αGal, Octyl α-D-galactopyranoside, reference compound] <4 °C

Do the same for CCCCCCCC(=O)OC[C@H]1O[C@H](OC)[C@H](O)[C@@H](O)[C@@H]1O [MeαGlcO(C=O)C7, Methyl 6-O-octanoyl-α-D-glucopyranoside] please <4 °C

Do the same for CCCCCCCCCCOC(=O)[C@H]1O[C@H](OC)[C@H](O)[C@@H](O)[C@@H]1O please <4 °C

Do the same for CCCCCCOC(=O)[C@H]1O[C@H](OC)[C@H](O)[C@@H](O)[C@@H]1O please <4 °C

Do the same for CCCCCC(=O)OC[C@H]1O[C@H](OC)[C@H](O)[C@@H](O)[C@@H]1O [MeαGlcO(C=O)C5, Methyl 6-O-hexanoyl-α-D-glucopyranoside] please <4 °C

Do the same for CCCCCCCCCCCCOC(=O)[C@H]1O[C@H](OC)[C@H](O)[C@@H](O)[C@@H]1O please 22.1 ± 0.2 °C

Do the same for CCCCCCCC(=O)OC[C@H]1O[C@@H](OC)[C@H](O)[C@@H](O)[C@H]1O please <4 °C

Do the same for CCCCCCCCOC(=O)[C@H]1O[C@@H](OC)[C@H](O)[C@@H](O)[C@H]1O [MeβGal(C=O)OC8, methyl octyl galacturonate] please 31.6 ± 0.9 °C

Do the same for CCCCCCCCOC(=O)[C@H]1O[C@H](OC)[C@H](O)[C@@H](O)[C@@H]1O [MeαGlc(C=O)OC8, methyl octyl α-D-glucuronate] please <4 °C

Do the same for CCCCCCCCCCCC(=O)OC[C@H]1O[C@H](OC)[C@H](O)[C@@H](O)[C@@H]1O please 42.9 ± 0.1 °C

Do the same for CCCCCCCCCC(=O)OC[C@H]1O[C@H](OC)[C@H](O)[C@@H](O)[C@@H]1O [MeαGlcO(C=O)C9, Methyl 6-O-decanoyl-α-D-glucopyranoside] please 26.5 ± 0.2 °C
